- system_under_test: AXL (Homo sapiens, UniProt P30530)
- Sequence (P30530 26-894): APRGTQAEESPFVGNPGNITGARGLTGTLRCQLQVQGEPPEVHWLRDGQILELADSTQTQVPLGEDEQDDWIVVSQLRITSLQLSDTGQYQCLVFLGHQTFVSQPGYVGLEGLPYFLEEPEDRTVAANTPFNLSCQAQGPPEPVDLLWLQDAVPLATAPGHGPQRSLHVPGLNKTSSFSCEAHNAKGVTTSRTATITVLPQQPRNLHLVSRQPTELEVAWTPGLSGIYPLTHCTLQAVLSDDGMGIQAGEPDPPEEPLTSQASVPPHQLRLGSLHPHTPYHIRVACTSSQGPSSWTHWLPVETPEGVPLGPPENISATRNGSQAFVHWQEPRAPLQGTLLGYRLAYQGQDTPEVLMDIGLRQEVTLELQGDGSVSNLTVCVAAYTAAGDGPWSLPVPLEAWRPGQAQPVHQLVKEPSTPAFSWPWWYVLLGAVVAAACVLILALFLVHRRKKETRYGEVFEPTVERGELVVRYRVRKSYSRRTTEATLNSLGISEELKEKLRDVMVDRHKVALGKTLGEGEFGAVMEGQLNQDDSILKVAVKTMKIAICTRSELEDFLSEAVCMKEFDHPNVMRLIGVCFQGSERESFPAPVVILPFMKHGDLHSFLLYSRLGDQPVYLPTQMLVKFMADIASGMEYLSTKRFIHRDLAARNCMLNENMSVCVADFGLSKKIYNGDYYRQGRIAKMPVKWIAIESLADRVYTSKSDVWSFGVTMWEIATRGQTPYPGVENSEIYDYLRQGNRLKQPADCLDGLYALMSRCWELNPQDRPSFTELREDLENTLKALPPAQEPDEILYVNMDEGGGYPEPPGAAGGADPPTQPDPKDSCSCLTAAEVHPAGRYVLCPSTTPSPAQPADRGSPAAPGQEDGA
- protocol_notes: AXL enzymatic assay (ADP-Glo)
- Format: biochemical
- test_context: purified kinase, ATP 50 μM, read-out: AXL Enzymatic Inhibition (%)
observed_property: IC50

Take a look at these entries with their results.
CCOc1ccn(-c2ccc(F)cc2)c(=O)c1C(=O)Nc1ccc(Oc2ncnc3oc(-c4cnn(C)c4)c(-c4cccc(N)c4)c23)cc1	< 20 nM
CCNc1cccc(-c2c(-c3cnn(C)c3)oc3ncnc(Oc4ccc(NC(=O)c5cn(C)n(-c6ccc(F)cc6)c5=O)cc4)c23)c1	< 20 nM

From here, focus on the item given below.
Task: Answer with the recorded IC50 of `CC(=O)Nc1cccc(-c2c(-c3cnn(C)c3)oc3ncnc(Oc4ccc(NC(=O)c5cn(C)n(-c6ccc(F)cc6)c5=O)cc4)c23)c1` only.
Result: < 20 nM

----------
Recorded IC50 for the following molecules
- system_under_test: AXL (Homo sapiens, UniProt P30530)
- protocol_notes: AXL enzymatic assay (ADP-Glo)
- Assay type: biochemical
- test_context: purified kinase, ATP 50 μM, read-out: AXL Enzymatic Inhibition (%)
- Experimental: A purified kinase (AXL or MERTK) was incubated with a compound or DMSO (control) for 15 minutes in an assay buffer (25 mM Tri s pH 7.4, 10 mM MgCl2, 4 mM MnCl2, 2 mM DTT, 0.0100 BSA, 0.02% TritonX-100, 0.0100 Brij35 and 0.5 mM Na3VO4 for MERTK; and 40 mM Tri s pH 7.4, 20 mM MgCl2, 2 mM DTT, 0.01% BSA and 0.5 mM Na3VO4 for AXL). […] The mixture was incubated for 3 hours at 30° C. […]

Cc1ccc(C(=O)Nc2ccc(Oc3ncnc4oc(-c5cnn(C)c5)c(-c5cccc(N)c5)c34)cc2)c(=O)n1-c1ccc(F)cc1	< 20 nM

Task: Hello, please tell me recorded IC50 for this one: `CC(=O)Nc1cccc(-c2c(-c3cnn(C)c3)oc3ncnc(Oc4ccc(NC(=O)c5cccn(-c6ccccc6)c5=O)cc4)c23)c1`
Result: < 20 nM

Task: Please indicate IC50 recorded for `Cn1cc(-c2oc3ncnc(Oc4ccc(NC(=O)c5cccn(-c6ccc(F)c(F)c6)c5=O)cc4)c3c2-c2cccc(N)c2)cn1`
Result: < 20 nM

Task: Input `CN(C)Cc1ccc(-c2c(-c3cnn(C)c3)oc3ncnc(Oc4ccc(NC(=O)c5cn(C)n(-c6ccc(F)cc6)c5=O)cc4)c23)cc1` , output reported IC50.
Result: < 20 nM

Task: Using known records, supply IC50 for `Cn1cc(-c2oc3ncnc(Oc4ccc(NC(=O)c5cn(C)n(-c6ccc(F)cc6)c5=O)cc4)c3c2-c2cccc(CN3CCOCC3)c2)cn1`
Result: < 20 nM

Task: Could you please provide reported IC50 for `Cn1cc(-c2oc3ncnc(Oc4ccc(NC(=O)c5cn(C)n(-c6ccc(F)cc6)c5=O)cc4)c3c2-c2cccc(N3CCCCC3=O)c2)cn1` ? Thanks!
Result: 100 to 50000 nM

Task: Retrieve IC50 measured for `CN(C)Cc1cccc(-c2c[nH]c3ncnc(Oc4ccc(NC(=O)c5cn(C)n(-c6ccc(F)cc6)c5=O)cc4)c23)c1` and print it.
Result: 100 to 50000 nM

Task: Report IC50, nothing else, for this molecule: `CC(=O)Nc1cccc(-c2n[nH]c3ncnc(Oc4ccc(NC(=O)c5cccn(-c6ccc(F)cc6)c5=O)cc4)c23)c1`
Result: 20 to 100 nM

Task: Give the reported value of IC50 for this record: `COc1nn(-c2ccc(C)cc2)cc1C(=O)Nc1ccc(Oc2ncnc3oc(-c4cnn(C)c4)c(-c4cccc(N)c4)c23)cc1`
Result: 100 to 50000 nM

Task: Give reported IC50 value for `Cn1cc(-c2oc3ncnc(Oc4ccc(NC(=O)c5cn(C)n(-c6cccc(F)c6)c5=O)cc4)c3c2-c2cccc(N)c2)cn1`
Result: < 20 nM

Task: Answer with the recorded IC50 of `Cc1ccn(-c2ccc(F)cc2)c(=O)c1C(=O)Nc1ccc(Oc2ncnc3oc(-c4cnn(C)c4)c(-c4cccc(N)c4)c23)cc1` only.
Result: < 20 nM

Task: Recall and state the measured IC50 for `CC(=O)Nc1cccc(-c2c(-c3cnn(C)c3)oc3ncnc(Oc4ccc(NC(=O)c5cccn(C)c5=O)cc4)c23)c1` .
Result: 100 to 50000 nM

----------
Entries and their measured IC50 follow.
- system_under_test: AXL (Homo sapiens, UniProt P30530)
- protocol_notes: AXL enzymatic assay (ADP-Glo)
- Assay type: biochemical
- test_context: purified kinase, ATP 50 μM, read-out: AXL Enzymatic Inhibition (%)

As a guide, the following entries are already answered.
C=CC(=O)Nc1cccc(-c2c(-c3cnn(C)c3)oc3ncnc(Oc4ccc(NC(=O)c5cccn(-c6ccc(F)cc6)c5=O)cc4)c23)c1	100 to 50000 nM
CC(=O)Nc1cccc(-c2c(-c3ccsc3)oc3ncnc(Oc4ccc(NC(=O)c5cccn(-c6ccc(F)cc6)c5=O)cc4)c23)c1	< 20 nM

Task: Give IC50 for this entry on AXL (Homo sapiens, UniProt P30530): `CC(=O)Nc1cccc(-c2c(-c3cnn(C)c3)oc3ncnc(Oc4ccc(NC(=O)c5cccn(-c6ccc(F)cc6)c5=O)nc4)c23)c1`
Result: 20 to 100 nM

----------
- system_under_test: UniProt:Q12866
- Sequence (Q12866 21-999): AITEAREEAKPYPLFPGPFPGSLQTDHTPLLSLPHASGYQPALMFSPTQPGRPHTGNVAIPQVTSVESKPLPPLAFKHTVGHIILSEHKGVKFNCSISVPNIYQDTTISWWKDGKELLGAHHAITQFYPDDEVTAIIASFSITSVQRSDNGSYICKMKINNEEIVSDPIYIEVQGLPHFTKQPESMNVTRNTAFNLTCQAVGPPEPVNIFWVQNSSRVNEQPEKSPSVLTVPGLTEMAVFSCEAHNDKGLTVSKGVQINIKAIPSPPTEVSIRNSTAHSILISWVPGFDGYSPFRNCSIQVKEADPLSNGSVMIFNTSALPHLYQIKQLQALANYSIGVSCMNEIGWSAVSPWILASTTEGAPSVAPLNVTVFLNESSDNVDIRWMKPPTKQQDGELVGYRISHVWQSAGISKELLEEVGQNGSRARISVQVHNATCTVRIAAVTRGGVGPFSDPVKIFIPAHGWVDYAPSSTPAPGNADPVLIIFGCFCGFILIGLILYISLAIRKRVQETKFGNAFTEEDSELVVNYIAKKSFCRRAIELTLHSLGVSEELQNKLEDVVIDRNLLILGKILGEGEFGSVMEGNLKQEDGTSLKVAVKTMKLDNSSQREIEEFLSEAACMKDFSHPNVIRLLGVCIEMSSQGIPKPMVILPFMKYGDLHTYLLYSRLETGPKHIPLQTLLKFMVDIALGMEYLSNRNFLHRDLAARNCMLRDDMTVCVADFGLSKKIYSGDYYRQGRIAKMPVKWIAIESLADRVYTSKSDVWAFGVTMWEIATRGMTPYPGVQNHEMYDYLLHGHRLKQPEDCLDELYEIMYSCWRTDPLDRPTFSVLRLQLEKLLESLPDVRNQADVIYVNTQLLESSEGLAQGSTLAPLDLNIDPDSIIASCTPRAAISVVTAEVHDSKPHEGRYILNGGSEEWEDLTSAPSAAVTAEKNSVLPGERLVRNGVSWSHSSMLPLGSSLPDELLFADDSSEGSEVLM
- protocol_notes: MERTK enzymatic assay (Kinase Glo)
- Assay type: biochemical
- test_context: purified kinase, ATP 12 μM, read-out: MER Enzymatic Inhibition (%)
pIC50: −log10 of the molar value.
List of pIC50 values.

# example entries with known answers
Cn1cc(-c2oc3ncnc(Oc4ccc(NC(=O)c5ccc(-c6cccc(F)c6)o5)cc4)c3c2-c2cccc(N)c2)cn1	4.30 to 7.00
CN(C)Cc1ccccc1-c1c(-c2cnn(C)c2)oc2ncnc(Oc3ccc(NC(=O)c4cccn(-c5ccc(F)cc5)c4=O)cc3)c12	4.30 to 7.00
CC(=O)Nc1cccc(-c2c(-c3cnn(C)c3)oc3ncnc(Oc4ccc(NC(=O)c5ccc(C)n(-c6ccc(F)cc6)c5=O)cc4)c23)c1	> 7.70
CNc1cccc(-c2c[nH]c3ncnc(Oc4ccc(NC(=O)c5cccn(-c6ccc(F)cc6)c5=O)cc4)c23)c1	4.30 to 7.00
Cn1cc(-c2oc3ncnc(Oc4ccc(NC(=O)c5ccc[nH]c5=O)cc4)c3c2-c2cccc(N)c2)cn1	4.30 to 7.00

Note: attention shifts to another entry.
Task: Tell me pIC50 reported for `O=C(Nc1ccc(Oc2ncnc3oc(-c4ccccc4)cc23)cc1)c1cccn(-c2ccc(F)cc2)c1=O`
Result: 4.30 to 7.00

----------
- Test system: MER/AXL
- protocol_notes: Dual MER/AXL inhibition (enzymatic)
- Format: biochemical
- test_context: class for both MER and AXL
pIC50: −log10 of the molar value.
observed_property: pIC50

Cn1cc(-c2oc3ncnc(Oc4ccc(NC(=O)c5cn(C)n(-c6ccc(F)cc6)c5=O)cc4)c3c2-c2ccccc2N)cn1	4.30 to 7.00
CCOc1ccn(-c2ccc(F)cc2)c(=O)c1C(=O)Nc1ccc(Oc2ncnc3[nH]cc(-c4cccc(NC(C)=O)c4)c23)cc1	7.00 to 7.70
Cn1cc(-c2oc3ncnc(Oc4ccc(NC(=O)c5cccn(-c6cccc(F)c6)c5=O)cc4)c3c2-c2cccc(N)c2)cn1	7.00 to 7.70
O=C(Nc1ccc(Nc2ncnc3[nH]cc(C#Cc4ccccc4)c23)cc1)c1cccn(-c2ccc(F)cc2)c1=O	4.30 to 7.00
CC(=O)Nc1cccc(-c2c(-c3cnn(C)c3)oc3ncnc(Oc4ccc(NC(=O)c5ccc(C)n(-c6ccc(F)cc6)c5=O)cc4)c23)c1	> 7.70

Okay, next one:
Task: Indicate its recorded pIC50; the compound in question is `O=C(Nc1ccc(Oc2ncnc3[nH]cc(C#Cc4ccccc4)c23)cc1)c1cccn(-c2ccc(F)cc2)c1=O`
Result: 4.30 to 7.00
